The measurements presented in this section are drawn from patent US7612097B2.

- Tested on: Aspergillus niger IFO 6341
- experimental details: Antimold MIC against eumycetes, broth dilution
- Assay type: cell-based
- protocol conditions: Sabouraud medium, 30° C., 7 days
- Experimental: As a control compound, TBZ (2-(4′-thiozolyl)benzimidazole) was used. Each minimum inhibitory concentration (MIC) was determined as will be described hereinafter. Following the general broth dilution method, each test microorganisms which had been precultured with Sabouraud medium was diluted with humectant-added, sterilized water to prepare a spore suspension. […] The turbidity-free lowest concentration was recorded as MIC.
quantity kind: MIC (µM)
Just the number in µM, nothing appended.

compound	tested system	quantity kind	test value
CCCCCCCC[n+]1cccc(COCCCCOCc2ccc[n+](CCCCCCCC)c2)c1.[Br-].[Br-]	Aspergillus niger IFO 6341	MIC	3.6
c1ccc2[nH]c(-c3cscn3)nc2c1 [TBZ, 2-(4′-thiozolyl)benzimidazole, reference compound]	Aspergillus niger IFO 6341	MIC	25.6
CCCCCCCC[n+]1ccc(COCCCCOCc2cc[n+](CCCCCCCC)cc2)cc1.[Br-].[Br-]	Aspergillus niger IFO 6341	MIC	3.6

Please look at the following compound next.
Task item: Supply reported MIC belonging to this compound: CCCCCCCCCC[n+]1cccc(COCCCCOCc2ccc[n+](CCCCCCCCCC)c2)c1.[Br-].[Br-]
Reply: 1.8
